Test system: ATCC25922
Assay: MIC on E. coli ATCC25922
Assay type: cell-based
Conditions: strain ATCC25922
Flag rule - MIC less than 2 µg/mL flags Satisfied; the remaining entries get Not satisfied.

# compound, assignedLabel
records = [
    ("O=C1CN(/N=C/c2ccc([N+](=O)[O-])o2)C(=O)N1 [nitrofurantoin, reference compound]", "Not satisfied"),
    ("O=C(Nc1nc(-c2ccc(F)cc2)cs1)c1ccc([N+](=O)[O-])s1 [compound 15]", "Satisfied"),
    ("C[C@@H](O)[C@H]1C(=O)N2C(C(=O)O)=C(S[C@@H]3CN[C@H](C(=O)N(C)C)C3)[C@H](C)[C@H]12 [meropenem, reference compound]", "Satisfied"),
]

Next, consider the following compound.
Ask: Given O=C(Nc1nc(-c2ccc(F)cc2F)cs1)c1ccc([N+](=O)[O-])s1 [compound 12] , is recorded MIC strictly lower than 2 µg/mL?
Result: Satisfied

These measurements were taken from paper PMC5940854.
